Just for reference, patent US3983103A is where these values come from.

Record form. Attribute: MIC. Fill in for each entry.
- System: E. coli
- TEST DESCRIPTION: antibacterial spectrum in vitro (Table I), MIC
- Format: cell-based
Answers are plain numbers, in µg/mL.

Study these solved cases before continuing.
MOLECULE	QUANTITATIVE RESULT
CCC1OC(=O)C(C)C(OC2CC(C)(OC)C(O)C(C)O2)C(C)C(OC2OC(C)CC(N(C)C)C2O)C(C)(O)CC(C)C(NS(=O)(=O)c2ccc(Br)cc2)C(C)C(O)C1(C)O (stereo not shown)	125.0
CCC1OC(=O)C(C)C(OC2CC(C)(OC)C(O)C(C)O2)C(C)C(OC2OC(C)CC(N(C)C)C2O)C(C)(O)CC(C)C(NS(=O)(=O)c2ccc(C)cc2)C(C)C(O)C1(C)O (stereo not shown)	62.2
CCC1OC(=O)C(C)C(OC2CC(C)(OC)C(O)C(C)O2)C(C)C(OC2OC(C)CC(N(C)C)C2O)C(C)(O)CC(C)C(NS(=O)(=O)c2ccc(Cl)cc2)C(C)C(O)C1(C)O (stereo not shown)	62.5

Moving on to another molecule below.
MIC measured on CC[C@H]1OC(=O)[C@H](C)[C@@H](O[C@H]2C[C@@](C)(OC)[C@@H](O)[C@H](C)O2)[C@H](C)[C@@H](O[C@@H]2O[C@H](C)C[C@H](N(C)C)[C@H]2O)[C@](C)(O)C[C@@H](C)C(=O)[C@H](C)[C@@H](O)[C@]1(C)O [E, erythromycin, reference compound] = 250

----------
- Test system: Enterococcus 242
- TEST DESCRIPTION: testing against a set of organisms (Table II), MIC
- Assay type: cell-based
- CONDITION INFO: Enterococcus 242, Table II
ASSAY METRIC: MIC

MOLECULE	SYSTEM TESTED	ASSAY METRIC	RESULT
CCC1OC(=O)C(C)C(OC2CC(C)(OC)C(O)C(C)O2)C(C)C(OC2OC(C)CC(N(C)C)C2O)C(C)(O)CC(C)C(NS(=O)(=O)c2ccc(C)cc2)C(C)C(O)C1(C)O (stereo not drawn)	Enterococcus 242	MIC	3.9 µg/mL
CCC1OC(=O)C(C)C(OC2CC(C)(OC)C(O)C(C)O2)C(C)C(OC2OC(C)CC(N(C)C)C2O)C(C)(O)CC(C)C(NS(=O)(=O)c2ccc(Cl)cc2)C(C)C(O)C1(C)O (stereo not drawn)	Enterococcus 242	MIC	3.9 µg/mL
CCC1OC(=O)C(C)C(OC2CC(C)(OC)C(O)C(C)O2)C(C)C(OC2OC(C)CC(N(C)C)C2O)C(C)(O)CC(C)C(NS(=O)(=O)c2ccc(I)cc2)C(C)C(O)C1(C)O (stereo not drawn)	Enterococcus 242	MIC	7.8 µg/mL
CCC1OC(=O)C(C)C(OC2CC(C)(OC)C(O)C(C)O2)C(C)C(OC2OC(C)CC(N(C)C)C2O)C(C)(O)CC(C)C(NS(=O)(=O)c2ccc(NC(C)=O)cc2)C(C)C(O)C1(C)O (stereo not drawn)	Enterococcus 242	MIC	62.5 µg/mL
CCC(=O)Nc1ccc(S(=O)(=O)NC2C(C)CC(C)(O)C(OC3OC(C)CC(N(C)C)C3O)C(C)C(OC3CC(C)(OC)C(O)C(C)O3)C(C)C(=O)OC(CC)C(C)(O)C(O)C2C)cc1 (stereo not drawn)	Enterococcus 242	MIC	31.2 µg/mL

Your task in this section: give MIC for each listed record.
1. CCc1ccc(S(=O)(=O)NC2C(C)CC(C)(O)C(OC3OC(C)CC(N(C)C)C3O)C(C)C(OC3CC(C)(OC)C(O)C(C)O3)C(C)C(=O)OC(CC)C(C)(O)C(O)C2C)cc1 (stereo not drawn)
2. CCC1OC(=O)C(C)C(OC2CC(C)(OC)C(O)C(C)O2)C(C)C(OC2OC(C)CC(N(C)C)C2O)C(C)(O)CC(C)C(NS(=O)(=O)c2ccc(Br)cc2)C(C)C(O)C1(C)O (stereo not drawn)
3. CCC1OC(=O)C(C)C(OC2CC(C)(OC)C(O)C(C)O2)C(C)C(OC2OC(C)CC(N(C)C)C2O)C(C)(O)CC(C)C(NS(=O)(=O)c2ccc(F)cc2)C(C)C(O)C1(C)O (stereo not drawn)

1: 3.9 µg/mL; 2: 3.9 µg/mL; 3: 3.9 µg/mL

MIC measured on CCC1OC(=O)C(C)C(OC2CC(C)(OC)C(O)C(C)O2)C(C)C(OC2OC(C)CC(N(C)C)C2O)C(C)(O)CC(C)C(NS(=O)(=O)c2ccccc2C)C(C)C(O)C1(C)O (stereo not drawn) = 3.9 µg/mL
